testedSystem: UniProt Q99873
Sequence (Q99873 whole entry): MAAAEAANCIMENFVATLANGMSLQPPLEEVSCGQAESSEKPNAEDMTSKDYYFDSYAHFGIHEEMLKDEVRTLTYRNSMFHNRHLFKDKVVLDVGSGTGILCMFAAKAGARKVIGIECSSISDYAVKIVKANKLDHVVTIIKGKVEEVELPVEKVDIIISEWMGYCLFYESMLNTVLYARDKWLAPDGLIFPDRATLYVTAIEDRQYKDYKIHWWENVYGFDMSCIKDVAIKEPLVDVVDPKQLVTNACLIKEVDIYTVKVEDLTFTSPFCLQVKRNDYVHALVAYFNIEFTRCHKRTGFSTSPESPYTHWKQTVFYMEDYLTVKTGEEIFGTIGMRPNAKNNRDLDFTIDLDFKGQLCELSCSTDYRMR
protocolSummary: Inhibition of recombinant human His-tagged PRMT1 expressed in Escherichia coli BL21 (DE3) using biotin-labeled histone H4-20 as substrate incubated for 8 mins in presence of [3H]-SAM cofactor by scintillation proximity assay
endpointLabel: IC50

Please review the entries below; each comes with its answer.
// recorded IC50 for N=C(N)c1ccc(NC(=O)c2cc3ccc(C(=N)N)cc3o2)cc1 : > 100 µM

// recorded IC50 for N=C(N)c1ccc2cc(CCc3cc4ccc(C(=N)N)cc4o3)[nH]c2c1 : > 10 µM

Now, please, on to the next molecule.
// recorded IC50 for O=C(Nc1ccc(C2=NCCN2)cc1)c1cc2cc(C3=NCCN3)ccc2o1 : > 100 µM
